# MIC per entry
system: S. aureus (ATCC29213); assay: MIC, broth microdilution (CLSI), standard strain; assay type: cell-based; conditions: Staphylococcus aureus
PROPERTY_LABEL: MIC (µg/mL)

>>> endpoint_value("COc1c(N2C[C@@H]3CCCN[C@@H]3C2)c(F)cc2c(=O)c(C(=O)O)cn(C3CC3)c12 [MXF, moxifloxacin, reference compound]")
0.031
>>> endpoint_value("O=C(O)c1cn(C2CC2)c2cc(N3CCC(O)(COc4ccc(N5C[C@H](CO)OC5=O)cc4F)CC3)c(F)cc2c1=O [CZD, cadazolid, reference compound]")
0.5
>>> endpoint_value("O=C(O)c1cn(C2CC2)c2cc(N3CC4C(C3)C4Nc3ccc(N4C[C@H](CO)OC4=O)cc3F)c(F)cc2c1=O (stereo partly drawn)")
0.25

----------
test system: S. pneumoniae (13) clinical isolates; test: Susceptibility of clinical isolates (MIC); assay type: cell-based, Streptococcus pneumoniae; conditions: Streptococcus pneumoniae; S. pneumoniae, 13 clinical isolates; read-out: MIC90
PROPERTY_LABEL: MIC90 (µg/mL)

>>> endpoint_value("CC(=O)NC[C@H]1CN(c2ccc(N3CCOCC3)c(F)c2)C(=O)O1 [LZD, linezolid, reference compound]")
0.5
>>> endpoint_value("CC1Sc2c(C(=O)O)c(=O)c3cc(F)c(N4CCC(O)(COc5ccc(N6C[C@H](CO)OC6=O)cc5F)CC4)cc3n21 (stereo partly drawn)")
0.25
>>> endpoint_value("COc1c(N2CCNC(C)C2)c(F)cc2c(=O)c(C(=O)O)cn(C3CC3)c12 (stereo not drawn)")
32
>>> endpoint_value("C[C@H]1CCc2c(N3CCC(O)(COc4ccc(N5C[C@H](CO)OC5=O)cc4F)CC3)c(F)cc3c(=O)c(C(=O)O)cn1c23")
0.25

----------
Recorded MIC, one value per entry.
system: H. influenzae (ATCC49247); assay: MIC, broth microdilution (CLSI), standard strain; assay type: cell-based; conditions: Haemophilus influenzae
PROPERTY_LABEL: MIC (µg/mL)

>>> endpoint_value("O=C(O)c1cn(C2CC2)c2cc(N3CCC(O)(COc4ccc(N5C[C@H](CO)OC5=O)cc4F)CC3)c(F)cc2c1=O [CZD, cadazolid, reference compound]")
1
>>> endpoint_value("CN1COc2c(N3CCC(O)(COc4ccc(N5C[C@H](CO)OC5=O)cc4F)CC3)c(F)cc3c(=O)c(C(=O)O)cn1c23")
1
>>> endpoint_value("C[C@H]1COc2c(N3CCC(O)(COc4ccc(N5C[C@H](CO)OC5=O)cc4F)CC3)c(F)c(N)c3c(=O)c(C(=O)O)cn1c23")
2
>>> endpoint_value("CC(=O)NC[C@H]1CN(c2ccc(N3CCOCC3)c(F)c2)C(=O)O1 [LZD, linezolid, reference compound]")
8

----------
Overview of reported MIC50 across a group of molecules:
test system: S. haemolyticus (32) clinical isolates; assay: Susceptibility of clinical isolates (MIC); format: cell-based, Staphylococcus haemolyticus; settings: Staphylococcus haemolyticus; S. haemolyticus, 32 clinical isolates; read-out: MIC50
PROPERTY_LABEL: MIC50

>>> endpoint_value("CC1CCc2c(N3CCC(O)CC3)c(F)cc3c(=O)c(C(=O)O)cn1c23 (stereo not drawn)")
"≤ 0.0625 µg/mL"
>>> endpoint_value("CC1Sc2c(C(=O)O)c(=O)c3cc(F)c(N4CCC(O)(COc5ccc(N6C[C@H](CO)OC6=O)cc5F)CC4)cc3n21 (stereo partly drawn)")
"≤ 0.0625 µg/mL"
>>> endpoint_value("CCN1CCN(c2cc3c(cc2F)c(=O)c(C(=O)O)cn3C2CC2)CC1")
"≤ 0.0625 µg/mL"
